Reference source for all entries: PubChem BioAssay (NCI)

System: HL-60(TB) leukemia
measurement description: NCI tumour cell line growth inhibition, 48 h
Reported TGI values follow for various molecules
Number in µM, nothing else.

Please review the entries below; each comes with its answer.
1) O=c1ccc(=O)c2c(=O)c3ccccc3c(=O)c1=2
70.9
2) CC(=Nc1ccncc1)C(C)=Nc1ccncc1
87.2
3) CC[C@@]1(O)C(=O)OCc2c1cc1n(c2=O)Cc2cc3cc(N)ccc3nc2-1
1.03
4) NC(=O)c1ccc(C2C3=C(CCCC3=O)OC3=C2C(=O)c2ccccc2C3=O)cc1 (configuration not stated)
0.538

// next entry
# input What TGI value was documented for this molecule, `Cn1cc(CNCC2CCN(c3ncc(C(=O)NO)cn3)CC2)c2ccccc21` ?
# output 17.5
